- Tested target: rCYP4F2 (Homo sapiens, UniProt P78329)
- Sequence (P78329 5-520): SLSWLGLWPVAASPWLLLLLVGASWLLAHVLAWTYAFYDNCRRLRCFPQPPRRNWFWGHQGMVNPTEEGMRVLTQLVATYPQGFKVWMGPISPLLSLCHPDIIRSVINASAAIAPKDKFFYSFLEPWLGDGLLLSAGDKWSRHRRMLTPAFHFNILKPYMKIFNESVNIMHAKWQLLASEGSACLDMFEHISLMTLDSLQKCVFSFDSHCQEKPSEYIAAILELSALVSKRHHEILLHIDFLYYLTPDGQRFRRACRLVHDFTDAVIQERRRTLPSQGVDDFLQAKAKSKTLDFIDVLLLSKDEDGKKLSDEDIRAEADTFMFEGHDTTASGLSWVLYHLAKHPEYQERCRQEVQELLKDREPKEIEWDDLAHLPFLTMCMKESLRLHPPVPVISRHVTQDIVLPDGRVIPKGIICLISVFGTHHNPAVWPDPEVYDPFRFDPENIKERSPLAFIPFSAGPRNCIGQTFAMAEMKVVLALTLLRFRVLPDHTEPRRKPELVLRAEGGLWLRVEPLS
- Assay notes: Inhibition of 20-HETE formation at 250 or 500 nM in rCYP4F2 incubations
- Assay type: biochemical
- Experimental parameters: 500 nM compound; rCYP4F2 25 pmol/mL; read-out: rCYP4F2 % inh. @ 500 nM
- Experimental: To screen the inhibitory effects against 20-HETE formation, compounds were screened in HLM, RLM, RKM and rCYP4F2 microsomal incubations. Compounds dissolved in either 100% methanol or 100% DMSO to yield 10 mM stock solution. […] 20-HETE formation was quantified using a validated UPLC-MS/MS assay and normalized by vehicle group. […] Quantitation of 20-HETE by SRM was performed by monitoring the m/z. Analytical data was acquired and analyzed using Xcaliber 3.0 data system (ThermoFinnigan, San Jose, CA).
Value type: inhibition at 0.5 µM (%)

>>> measured_result("COc1ccccc1C1CCN(c2ccn[nH]2)CC1")
2
>>> measured_result("COCc1ccc(C2CCN(c3cn[nH]c3)CC2)cc1")
81.7
>>> measured_result("Fc1ccc(C2CCN(c3cn[nH]c3)CC2)cc1")
83
>>> measured_result("Cc1ccc(CC2CCN(c3cn[nH]c3)CC2)cc1")
89.3
>>> measured_result("O=[N+]([O-])c1ccc(C2CCN(c3cn[nH]c3)CC2)cc1")
60.1

A: Fc1ccc(C2CCN(c3ccn[nH]3)CC2)cc1
B: Cc1cccc(CC2CCN(c3ccn[nH]3)CC2)c1
Ask | Between the two listed entries A and B , which has its inhibition at 0.5 µM at the higher number? To answer, give the label that identifies your chosen option.
Reply | A
(A: 70%, B: 22.9%)

A: Cc1ccc(C2CCN(c3cn[nH]c3)CC2)cc1
B: COc1ccc(N2CCN(c3cn[nH]c3)CC2)cc1
Ask | A or B : whose inhibition at 0.5 µM is greater? Identify your selection by its label.
Reply | A

###

- Assay notes: Turbidometric solubility determination
- Assay type: physicochemical
- Experimental parameters: PBS with 1% DMSO, aqueous buffer, kinetic from dmso stock, room temperature, OD620, read-out: Max Solub
Value type: solubility at 2 h (µM)

Some compounds with recorded solubility at 2 h:
>>> measured_result("CC(=O)Nc1ccc(C2CCN(c3cn[nH]c3)CC2)cc1")
482
>>> measured_result("O=S(=O)(c1ccccc1)C1CCN(c2ccn[nH]2)CC1")
369

P: Clc1ccc(CC2CCN(c3cn[nH]c3)CC2)cc1
Q: O=C(c1ccc(C2CCN(c3cn[nH]c3)CC2)c(F)c1)N1CCCC1
R: CCS(=O)(=O)c1ccc(C2CCN(c3cn[nH]c3)CC2)cc1
Ask | Task for the reader: rank each entry by its solubility at 2 h, from the minimum upward. Give me the labels in the order the question wants.
Reply | P, R, Q

###

- Tested target: rCYP4F2 (Homo sapiens)
- Assay notes: Inhibition of 20-HETE formation at 250 or 500 nM in rCYP4F2 incubations
- Type: biochemical
- Experimental parameters: 500 nM compound; rCYP4F2 25 pmol/mL; read-out: rCYP4F2 % inh. @ 500 nM
Value type: inhibition at 0.5 µM (%)

Please review the entries below; each comes with its answer.
>>> measured_result("Fc1ccccc1C1CCN(c2cn[nH]c2)CC1")
94
>>> measured_result("O=C1CCCN1Cc1ccc(C2CCN(c3ccn[nH]3)CC2)cc1")
80.3

a: O=S1(=O)CCc2cc(C3CCN(c4ccn[nH]4)CC3)ccc21
b: Clc1ccc(CC2CCN(c3cn[nH]c3)CC2)cc1
Ask | Which is greater in inhibition at 0.5 µM, the first item a or the second item b ? // caller expects the label of the chosen entry
Reply | b

###

- Tested target: formation of EETs and DiHETs (epoxygenase activity) in HLM
- Assay notes: Selectivity: inhibition of EETs and DiHETs formation (epoxygenase activity) in HLM
- Experimental parameters: sum of EETs and DiHETs
- Protocol: Selectivity of compounds for inhibition of 20-HETE formation vs inhibition of formation of 8,9-, 11,12-, 14,15-EET and 5,6-, 8,9-, 11,12-, 14,15-DiHETs was assessed via the simultaneous monitor of formation of 20-HETE and those metabolites under the UPLC-MS/MS assay conditions described above using HLM incubations and the same 12 test compound concentrations (0.1 nM-[…]) used for the IC50 determination experiments. […]
Quick reference: IC50 of the listed items.

Illustrative cases are given below, each with its answer.
>>> measured_result("O=C1CCCN1c1ccc(C2CCN(c3cn[nH]c3)CC2)cc1")
"> 0.05 µM"
>>> measured_result("c1ccc(C2CCN(c3ccn[nH]3)CC2)cc1")
"> 50 µM"
>>> measured_result("COc1cccc(C2CCN(c3cn[nH]c3)CC2)c1")
"> 50 µM"

Ask | So what does the record say about IC50 for COc1ccc(C2CCN(c3ccn[nH]3)CC2)cc1 ?
Reply | > 25 µM

Ask | Requested field: IC50. Item: c1ccc(CC2CCN(c3ccn[nH]3)CC2)cc1
Reply | > 50 µM

Ask | If you can, please state the reported IC50 value of c1ccc(CC2CCN(c3cn[nH]c3)CC2)cc1 .
Reply | > 25 µM

Ask | May I ask what IC50 has been recorded for O=C1CCCN1Cc1ccc(C2CCN(c3cn[nH]c3)CC2)cc1 ?
Reply | > 0.05 µM

Ask | Would you kindly share the measured IC50 for c1ccc(C2CCN(c3cn[nH]c3)CC2)cc1 ?
Reply | > 10 µM

###

- System: 20-HETE formation (CYP4) in RKM
- Assay notes: Inhibition of 20-HETE formation at 250 or 500 nM in RKM microsomal incubations
- Assay type: biochemical, rat
- Experimental parameters: 500 nM compound; RKM 300 μg/ml
Value type: RKM % inh. @ 500 nM (%)

Check out these entries, answers already filled in.
>>> measured_result("COc1cccc(C2CCN(c3cn[nH]c3)CC2)c1")
0.00
>>> measured_result("COc1cccc(CC2CCN(c3cn[nH]c3)CC2)c1")
0.00
>>> measured_result("Fc1ccc(C2CCN(c3ccn[nH]3)CC2)cc1")
0.00

a: COc1cc(C2CCN(c3ccn[nH]3)CC2)ccn1
b: CC(=O)N(C)c1ccc(C2CCN(c3cn[nH]c3)CC2)cc1
Ask | Rank a against b by their RKM % inh. @ 500 nM values and give the higher one. Please reply using the label of the selected record.
Reply | b
(b: 43.00%, a: 0.00%)

P: Cc1ccccc1C1CCN(c2cn[nH]c2)CC1
Q: COc1ccc(C2CCN(c3ccn[nH]3)CC2)c(F)c1
R: COc1ccc(C2CCN(c3ccn[nH]3)CC2)cn1
Ask | Arrange by RKM % inh. @ 500 nM, high to low. The labels, placed in the requested order, form the answer.
Reply | R, P, Q

I: O=S(=O)(c1ccccc1)C1CCN(c2cn[nH]c2)CC1
II: COc1ccc(C2CCN(c3cn[nH]c3)CC2)cc1
Ask | Pick one: I or II . Which has the bigger RKM % inh. @ 500 nM number? Pick one; state its label.
Reply | II
(II: 4.90%, I: 0.00%)

###

- System: 20-HETE formation (CYP4) in RLM
- Assay notes: Inhibition of 20-HETE formation at 250 or 500 nM in RLM microsomal incubations
- Type: biochemical, rat
- Experimental parameters: 500 nM compound; RLM 300 μg/ml
Value type: RLM % inh. @ 500 nM (%)

Worked examples, 3 compounds total:
>>> measured_result("CC(=O)N(C)c1ccc(C2CCN(c3cn[nH]c3)CC2)cc1")
52.00
>>> measured_result("COC(=O)c1cccc(C2CCN(c3ccn[nH]3)CC2)c1")
0.00
>>> measured_result("Fc1cccc(C2CCN(c3ccn[nH]3)CC2)c1")
0.00

P: FC(F)(F)c1ccnc(C2CCN(c3cn[nH]c3)CC2)c1
Q: CC(=O)Nc1ccc(C2CCN(c3cn[nH]c3)CC2)cc1
R: Cc1cccc(C2CCN(c3ccn[nH]3)CC2)c1
S: COc1ccccc1C1CCN(c2ccn[nH]2)CC1
T: O=C(c1ccc(C2CCN(c3ccn[nH]3)CC2)c(F)c1)N1CCCC1
Ask | Put these in order: smallest RLM % inh. @ 500 nM first, largest last. // respond by listing labels in the order requested
Reply | S, T, R, P, Q
(S: 0.00%, T: 2.00%, R: 12.00%, P: 18.10%, Q: 37.00%)

I: COc1cc(C2CCN(c3cn[nH]c3)CC2)ccn1
II: O=C1CCCN1c1ccc(C2CCN(c3ccn[nH]3)CC2)cc1
Ask | Would you let me know which has the greater RLM % inh. @ 500 nM value, I or II ? Your answer should be the label of the entry you select.
Reply | II
